Target: T1, CRF2R
T1 sequence (Q13324 whole entry, species assumed, looked up): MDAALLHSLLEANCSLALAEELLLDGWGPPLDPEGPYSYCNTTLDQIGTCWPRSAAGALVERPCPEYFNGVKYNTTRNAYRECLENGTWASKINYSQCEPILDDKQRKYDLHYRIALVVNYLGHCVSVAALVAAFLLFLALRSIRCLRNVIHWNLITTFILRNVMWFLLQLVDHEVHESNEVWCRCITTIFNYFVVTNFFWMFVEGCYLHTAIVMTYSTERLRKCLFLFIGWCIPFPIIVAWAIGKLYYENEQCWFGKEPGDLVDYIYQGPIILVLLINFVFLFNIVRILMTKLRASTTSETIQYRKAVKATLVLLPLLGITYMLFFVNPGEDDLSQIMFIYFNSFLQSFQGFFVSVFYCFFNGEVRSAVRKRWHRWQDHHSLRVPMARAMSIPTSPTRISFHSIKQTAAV
Assay: cell-based or functional assay
A collection of binders and their measured CRF2R EC50
Record the value in nM, omitting the unit from your answer.

Examples with answers:
1) ZGPPISIDLPFQLLRKVIEIEKQEKEKQQAANNANLLANI (not fully specified; C-terminal amide) [SEQ ID NO 275] ... 46.6
2) ZGPPISIDLPHALLRKMIEIEKQEKEKQQAANNRLLLDTI (C-terminal amide) [SEQ ID NO 304] ... 19.3

Provide one value: measured CRF2R EC50 of ZGPPISIDLPFWLLRKMIEIEKQEKEKQQAANNRLLLDTI (C-terminal amide) [SEQ ID NO 217] 4.7
